Parameter fold change of affinity: see the listing below.
# target.under.test: T1, Human CD3eg linker (human)
# T1 construct: Single chain: epsilon and gamma subunits of human CD3 joined by a 29-mer linker, Flag-tag at the C-terminus; also called recombinant human CD3
# T1 chain: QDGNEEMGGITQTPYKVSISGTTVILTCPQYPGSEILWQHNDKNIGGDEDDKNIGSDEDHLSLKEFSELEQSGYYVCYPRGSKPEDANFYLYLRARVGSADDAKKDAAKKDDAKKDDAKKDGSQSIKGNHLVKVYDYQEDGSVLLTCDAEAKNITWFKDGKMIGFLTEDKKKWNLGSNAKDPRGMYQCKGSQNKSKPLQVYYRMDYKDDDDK
# assay.method.text: Biacore SPR, vs template H183/L072
Numeric answer only, unit fold assumed.

Here are 2 binders together with their reported answers.
[
  {
    "binder": "H183/L072 VH G26M (antibody, name in Kabat numbering, V domains shown) VH: QVQLVESGGGLVQPGRSLRLSCAASMFTFSNAWMHWVRQAPGKGLEWVAQIKDKGNAYAAYYAPSVKGRFTISRDDSKNSIYLQMNSLKTEDTAVYYCHYVHYASASTVLPAFGVDAWGQGTTVTVSS VL: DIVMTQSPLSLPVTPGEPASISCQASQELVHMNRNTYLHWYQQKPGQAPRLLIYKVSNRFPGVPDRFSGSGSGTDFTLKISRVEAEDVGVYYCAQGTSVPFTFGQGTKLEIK",
    "value.reported": 0.6
  },
  {
    "binder": "H183/L072 VH Y59K (antibody, name in Kabat numbering, V domains shown) VH: QVQLVESGGGLVQPGRSLRLSCAASGFTFSNAWMHWVRQAPGKGLEWVAQIKDKGNAYAAYKAPSVKGRFTISRDDSKNSIYLQMNSLKTEDTAVYYCHYVHYASASTVLPAFGVDAWGQGTTVTVSS VL: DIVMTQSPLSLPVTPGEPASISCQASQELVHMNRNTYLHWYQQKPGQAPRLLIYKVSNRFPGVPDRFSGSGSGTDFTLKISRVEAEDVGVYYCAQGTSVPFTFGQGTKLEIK",
    "value.reported": 1.3
  }
]

## Input Dear colleague, I am looking for the recorded fold change of affinity of the following binder: H183/L072 VH G26T (antibody, name in Kabat numbering, V domains shown) VH: QVQLVESGGGLVQPGRSLRLSCAASTFTFSNAWMHWVRQAPGKGLEWVAQIKDKGNAYAAYYAPSVKGRFTISRDDSKNSIYLQMNSLKTEDTAVYYCHYVHYASASTVLPAFGVDAWGQGTTVTVSS VL: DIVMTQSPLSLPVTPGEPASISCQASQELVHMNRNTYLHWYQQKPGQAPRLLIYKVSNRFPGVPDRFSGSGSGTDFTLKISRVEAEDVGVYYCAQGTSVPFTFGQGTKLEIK
## Output 0.4

## Input Dear colleague, I am looking for the recorded fold change of affinity of the following binder: H183/L072 VH A56I (antibody, name in Kabat numbering, V domains shown) VH: QVQLVESGGGLVQPGRSLRLSCAASGFTFSNAWMHWVRQAPGKGLEWVAQIKDKGNAYIAYYAPSVKGRFTISRDDSKNSIYLQMNSLKTEDTAVYYCHYVHYASASTVLPAFGVDAWGQGTTVTVSS VL: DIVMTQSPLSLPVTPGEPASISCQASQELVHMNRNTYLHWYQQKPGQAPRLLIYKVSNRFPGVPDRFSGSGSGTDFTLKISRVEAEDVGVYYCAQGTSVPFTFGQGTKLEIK
## Output 0.6

## Input Dear colleague, I am looking for the recorded fold change of affinity of the following binder: H183/L072 VH G100hA (antibody, name in Kabat numbering, V domains shown) VH: QVQLVESGGGLVQPGRSLRLSCAASGFTFSNAWMHWVRQAPGKGLEWVAQIKDKGNAYAAYYAPSVKGRFTISRDDSKNSIYLQMNSLKTEDTAVYYCHYVHYASASTVLPAFAVDAWGQGTTVTVSS VL: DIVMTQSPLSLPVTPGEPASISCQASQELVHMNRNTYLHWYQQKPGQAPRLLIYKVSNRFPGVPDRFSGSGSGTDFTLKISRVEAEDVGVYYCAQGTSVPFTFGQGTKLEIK
## Output 4.8
